# Tested on: SK-OV-3
# Assay: Cytotoxicity against human SKOV3 cells up to 25 ug/ml after 48 hrs by neutral red assay relative to control
# Assay type: cell-based
# Condition Description: sk-ov-3, 48 h
Measure: Activity

Worked examples, 8 molecules total:
O=c1sc2ccccc2n1CCCN1CCN(CCn2c(=O)sc3ccccc32)CC1
Non-toxic
O=c1sc2ccccc2n1CCCCN1CCN(CCCCn2c(=O)sc3ccccc32)CC1
Non-toxic
O=c1oc2ccccc2n1CCCCCN1CCN(CCCCn2c(=O)oc3ccccc32)CC1
Non-toxic
O=c1oc2ccccc2n1CCCN1CCN(CCCn2c(=O)oc3ccccc32)CC1
Non-toxic
O=c1oc2ccccc2n1CCCCCN1CCN(CCCn2c(=O)oc3ccccc32)CC1
Non-toxic
O=c1oc2ccccc2n1CCCCCN1CCN(CCCCCn2c(=O)oc3ccccc32)CC1
Non-toxic
O=c1oc2ccccc2n1CCCCCCN1CCN(CCn2c(=O)oc3ccccc32)CC1
Non-toxic
O=c1oc2ccccc2n1CCCCN1CCN(CCn2c(=O)oc3ccccc32)CC1
Non-toxic

# Activity (molecule: O=c1oc2ccccc2n1CCCCCCN1CCN(CCCn2c(=O)oc3ccccc32)CC1 ) is Non-toxic

---

# Assay: Cytotoxicity against pig LLC-PK11 cells after 48 hrs by neutral red assay relative to control
# Format: cell-based
# Condition Description: Sus scrofa, LLC-PK11, 48 h
Measure: pIC50
Lab note: report pIC50 as minus log10 of the concentration in molar units, number only.

O=c1sc2ccccc2n1CCCN1CCN(CCCn2c(=O)sc3ccccc32)CC1
4.63
c1ccc2oc(SCCCCN3CCN(CCCCSc4nc5ccccc5o4)CC3)nc2c1
4.63
O=c1sc2ccccc2n1CCCCN1CCN(CCCn2c(=O)sc3ccccc32)CC1
4.72

# pIC50 (molecule: O=c1sc2ccccc2n1CCCN1CCN(CCn2c(=O)sc3ccccc32)CC1 ) is 4.62

# pIC50 (molecule: COc1cccc2c1C(=O)c1c(O)c3c(c(O)c1C2=O)C[C@@](O)(C(=O)CO)C[C@@H]3O[C@H]1C[C@H](N)[C@H](O)[C@H](C)O1 ) is 6.10

---

# System: Rattus norvegicus
# Assay: Antiinflammatory activity in albino rat assessed as inhibition of carrageenan-induced paw edema at 30 mg/kg, ip administered 1 hr prior to carrageenan challenge measured 4 hrs after induction of inflammation relative to control
# Assay type: functional
Catalogue of inhibition in vivo at 30 mg/kg values
# value in %; strip the unit string

O=c1sc2ccccc2n1CCCCCCN1CCN(CCCCCn2c(=O)sc3ccccc32)CC1
34.9
c1ccc2sc(SCCCCN3CCN(CCCCSc4nc5ccccc5s4)CC3)nc2c1
47.1
O=C(c1ccccc1)c1ccc2n1CCC2C(=O)O (centres undefined)
79.3

Then this compound:
# inhibition in vivo at 30 mg/kg (compound: O=c1sc2ccccc2n1CCCCCCN1CCN(CCCCCCn2c(=O)sc3ccccc32)CC1 ) is 36.9

---

# Tested on: BT-549
# Assay: Cytotoxicity against human BT549 cells up to 25 ug/ml after 48 hrs by neutral red assay relative to control
# Assay type: cell-based
# Condition Description: bt-549, 48 h
Measure: Activity

O=c1oc2ccccc2n1CCCCN1CCN(CCCn2c(=O)oc3ccccc32)CC1
Non-toxic
O=c1sc2ccccc2n1CCCN1CCN(CCCn2c(=O)sc3ccccc32)CC1
Non-toxic
O=c1oc2ccccc2n1CCCN1CCN(CCn2c(=O)oc3ccccc32)CC1
Non-toxic
O=c1oc2ccccc2n1CCCCCCN1CCN(CCCCn2c(=O)oc3ccccc32)CC1
Non-toxic
O=c1oc2ccccc2n1CCCN1CCN(CCCn2c(=O)oc3ccccc32)CC1
Non-toxic

Then this molecule:
# Activity (molecule: O=c1oc2ccccc2n1CCCCCN1CCN(CCCCn2c(=O)oc3ccccc32)CC1 ) is Non-toxic
